Data credit: patent US8198322B2

# System: MCF-7 cells
# assay explanation: Cytotoxicity assay (IC50 measurement, MTT)
# Type: cell-based, human
# measurement conditions: MCF-7, 96 hrs, read-out: IC50 values for different complexes in MCF-7 cells

- compound: "[Cl-].[Fe+3].[O-]c1ccccc1C=NCCN=Cc1ccccc1[O-] [compound 22, Fe(III)-salen chloride]"
  IC50 / µM: 22.4
- compound: "CC(=O)[O-].[Mn+3].[O-]c1ccccc1C=Nc1ccccc1N=Cc1ccccc1[O-] [compound 8, Mn(III)-salphen acetate]"
  IC50 / µM: 15
- compound: "COc1ccc([O-])c(C=NCCN=Cc2cc(OC)ccc2[O-])c1.[Cl-].[Fe+3] [compound 28, 5,5′-Dimethoxysalen Fe(III) chloride]"
  IC50 / µM: 4.56
- compound: "CC(=O)[O-].COc1cccc(C=NCCN=Cc2cccc(OC)c2[O-])c1[O-].[Mn+3] [compound 5, 3,3′-Dimethoxysalen Mn(III) acetate]"
  IC50 / µM: 17.7
- compound: "CC(=O)[O-].[Mn+3].[O-]c1cc(O)ccc1C=Nc1cc2ccccc2cc1N=Cc1ccc(O)cc1[O-] [compound 17, 4,4′-Dihydroxysalnaphen Mn(III) acetate]"
  IC50 / µM: 21.4
- compound: "CC(=O)[O-].[Mn+3].[O-]c1ccc(O)cc1C=Nc1ccccc1N=Cc1cc(O)ccc1[O-] [compound 11, 5,5′-Dihydroxysalphen Mn(III) acetate]"
  IC50 / µM: 45.6

----------
The following compounds are shown together with reported IC50 values.
# System: MCF-7 cells
# assay explanation: Cytotoxicity assay (IC50 measurement, MTT)
# Type: cell-based, human
# measurement conditions: MCF-7, 96 hrs, read-out: IC50 values for different complexes in MCF-7 cells

- compound: "COc1cccc(C=Nc2ccccc2N=Cc2cccc(OC)c2[O-])c1[O-].[Cl-].[Fe+3] [compound 33, 3,3′-Dimethoxysalphen Fe(III) chloride]"
  IC50: "4.15 µM"
- compound: "CC(=O)[O-].COc1cccc(C=Nc2cc3ccccc3cc2N=Cc2cccc(OC)c2[O-])c1[O-].[Mn+3] [compound 19, 3,3′-Dimethoxysalnaphen Mn(III) acetate]"
  IC50: "39.7 µM"
- compound: "CC(=O)[O-].COc1ccc([O-])c(C=NCCN=Cc2cc(OC)ccc2[O-])c1.[Mn+3] [compound 7, 5,5′-Dimethoxysalen Mn(III) acetate]"
  IC50: "16.1 µM"
- compound: "CC(=O)[O-].COc1ccc(C=NCCN=Cc2ccc(OC)cc2[O-])c([O-])c1.[Mn+3] [compound 6, 4,4′-Dimethoxysalen Mn(III) acetate]"
  IC50: "12.3 µM"
- compound: "COc1cccc(C=Nc2cc3ccccc3cc2N=Cc2cccc(OC)c2[O-])c1[O-].[Cl-].[Fe+3] [compound 40, 3,3′-Dimethoxysalnaphen Fe(III) chloride]"
  IC50: "1.5 µM"
- compound: "COc1ccc([O-])c(C=Nc2ccccc2N=Cc2cc(OC)ccc2[O-])c1.[Cl-].[Fe+3] [compound 35, 5,5′-Dimethoxysalphen Fe(III) chloride]"
  IC50: "3.11 µM"

----------
The entries below come with measured IC50 values attached.
# System: MCF-7 cells
# assay explanation: Cytotoxicity assay (IC50 measurement, MTT)
# Assay type: cell-based, human
# measurement conditions: MCF-7, 96 hrs, read-out: IC50 toward MCF-7 cells
quantity name: IC50

- molecule: "[Cl-].[Fe+3].[O-]c1c(O)cccc1C=Nc1cc2ccccc2cc1N=Cc1cccc(O)c1[O-] [compound 37, 3,3′-Dihydroxysalnaphen Fe(III) chloride]"
  experimental value: "220 nM"
- molecule: "[Cl-].[Fe+3].[O-]c1c(O)cccc1C=Nc1ccccc1N=Cc1cccc(O)c1[O-] [compound 30, 3,3′-Dihydroxysalphen Fe(III) chloride]"
  experimental value: "330 nM"
- molecule: "COc1ccc(C=Nc2ccccc2N=Cc2ccc(OC)cc2[O-])c([O-])c1.[Cl-].[Fe+3] [compound 34, 4,4′-Dimethoxysalphen Fe(III) chloride]"
  experimental value: "680 nM"
- molecule: "[Cl-].[Fe+3].[O-]c1ccccc1C=Nc1cc2ccccc2cc1N=Cc1ccccc1[O-] [compound 36, Fe(III)-salnaphen chloride]"
  experimental value: "540 nM"
- molecule: "COc1ccc(C=Nc2cc3ccccc3cc2N=Cc2ccc(OC)cc2[O-])c([O-])c1.[Cl-].[Fe+3] [compound 41, 4,4′-Dimethoxysalnaphen Fe(III) chloride]"
  experimental value: "530 nM"
